tested-system: IKKε (Homo sapiens, UniProt Q14164)
Construct: His-tag; made in house; host or cells: Sf9 insect cells
method-notes: In-vitro IKKε kinase assay ([γ33]ATP filter-plate)
Format: biochemical
assay-context: text bins; read-out: IC50 for inhibition of the kinase activity of IKKε
property-measured: IC50

Q) Please look at this molecule and report its IC50: `CCN1CCN(CCCOc2cc(Nc3nccc(-c4ccc(OC5CCOCC5)c(C#N)c4)n3)ccc2OC)CC1`
A) < 5 nM

Q) Please look at this molecule and report its IC50: `COc1cc(Nc2nccc(-c3ccc(OC4CCOCC4)c(C#N)c3)n2)ccc1CN1C[C@@H](C)O[C@@H](C)C1`
A) < 5 nM

Q) Please look at this molecule and report its IC50: `COc1cc(NC(C)=O)cc(Nc2nccc(-c3ccc(OC)c(C#N)c3)n2)c1`
A) 5 to 50 nM

Q) Please look at this molecule and report its IC50: `N#Cc1cc(-c2ccnc(Nc3ccc(N4CCOCC4)cc3)n2)ccc1OC1CCN(CC(=O)N2CCOCC2)CC1`
A) 50 to 500 nM

Q) Please look at this molecule and report its IC50: `COc1cc(Nc2nccc(-c3ccc(OC4CCOCC4)c(C#N)c3)n2)ccc1CN1CC(N2CCOCC2)C1`
A) < 5 nM

Q) Please look at this molecule and report its IC50: `COc1ccc(-c2ccnc(Nc3ccc(S(=O)(=O)N4CCN(C)CC4)cc3)n2)cc1C#N`
A) 50 to 500 nM

Q) Please look at this molecule and report its IC50: `COc1cc(Nc2nccc(-c3ccc(OC4CCOCC4)c(C#N)c3)n2)ccc1C(=O)NC1CCN(C)CC1`
A) < 5 nM

Q) Please look at this molecule and report its IC50: `COCC(=O)Nc1cccc(Nc2nccc(-c3ccc(OC4CCOCC4)c(C#N)c3)n2)c1`
A) < 5 nM

Q) Please look at this molecule and report its IC50: CC1CC1C(=O)Nc1ccc(-c2ccnc(Nc3ccc(N4CCOCC4)cc3)n2)cc1C#N (stereo not shown)
A) < 5 nM

Q) Please look at this molecule and report its IC50: `N#Cc1cc(-c2ccnc(Nc3ccc(N4CCOCC4)cc3)n2)ccc1OC1CCN(C(=O)[C@@H](O)C(F)(F)F)CC1`
A) 5 to 50 nM

Q) Please look at this molecule and report its IC50: `N#Cc1cc(-c2ccnc(Nc3cccc(NC(=O)NCCO)c3)n2)ccc1OC1CCOCC1`
A) < 5 nM

Q) Please look at this molecule and report its IC50: `COc1ccc(-c2ccnc(Nc3ccc(N(C)CC(=O)N(C)C)c(OC)c3)n2)cc1C#N`
A) < 5 nM

Q) Please look at this molecule and report its IC50: `COc1cc(Nc2nccc(-c3ccc(OC4CCOCC4)c(C#N)c3)n2)ccc1S(=O)(=O)NCCCN(C)C`
A) < 5 nM

Q) Please look at this molecule and report its IC50: `C[C@H](O)C(=O)NCCOc1ccc(-c2ccnc(Nc3ccc(N4CCOCC4)cc3)n2)cc1C#N`
A) 50 to 500 nM

Q) Please look at this molecule and report its IC50: `N#Cc1cc(-c2ccnc(Nc3cccc(-n4cccn4)c3)n2)ccc1OC1CCOCC1`
A) < 5 nM

Q) Please look at this molecule and report its IC50: `CC(=O)Nc1cccc(Nc2nccc(-c3cccc(C#N)c3)n2)c1`
A) 50 to 500 nM

Q) Please look at this molecule and report its IC50: `COC1CN(Cc2ccc(Nc3nccc(-c4ccc(NC(=O)C5CC5)c(C#N)c4)n3)cc2)C1`
A) 5 to 50 nM

Q) Please look at this molecule and report its IC50: N#Cc1cc(-c2ccnc(Nc3ccc(N4CCOCC4)cc3)n2)ccc1OC1CCOC1 (stereo not shown)
A) < 5 nM

Q) Please look at this molecule and report its IC50: `COc1cc(Nc2nccc(-c3ccc(O)c(C#N)c3)n2)ccc1N1CCNC(=O)C1`
A) < 5 nM

Q) Please look at this molecule and report its IC50: `COc1cc(Nc2nccc(-c3ccc(OCC(C)C)c(C#N)c3)n2)ccc1C(=O)N1CC(OC)C1`
A) < 5 nM

Q) Please look at this molecule and report its IC50: `C[C@H](O)C(=O)N1CCC(Oc2ccc(-c3ccnc(Nc4ccc(C(=O)NCCCN(C)C)cc4)n3)cc2C#N)CC1`
A) < 5 nM

Q) Please look at this molecule and report its IC50: `CCNS(=O)(=O)c1ccc(Nc2nccc(-c3ccc(NC(=O)C(C)C)c(C#N)c3)n2)cc1`
A) 5 to 50 nM

Q) Please look at this molecule and report its IC50: `CS(=O)(=O)N1CCC(Nc2ccc(Nc3nccc(-c4ccc(OC5CCOCC5)c(C#N)c4)n3)cc2)CC1`
A) < 5 nM

Q) Please look at this molecule and report its IC50: `N#Cc1cc(-c2ccnc(Nc3ccc(CN4CCOCC4)cc3)n2)ccc1OC1CCOCC1`
A) < 5 nM

Q) Please look at this molecule and report its IC50: `COCCOC1CN(C(=O)c2ccc(Nc3nccc(-c4ccc(OC5CCOCC5)c(C#N)c4)n3)cc2OC)C1`
A) < 5 nM

Q) Please look at this molecule and report its IC50: `COc1ccc(-c2ccnc(Nc3ccc(N4CCN(C)C(=O)C4)c(OC)c3)n2)cc1C#N`
A) < 5 nM

Q) Please look at this molecule and report its IC50: `N#Cc1cc(-c2ccnc(Nc3ccc(N4CCOCC4)cc3)n2)ccc1NC(=O)C1CC1`
A) < 5 nM

Q) Please look at this molecule and report its IC50: `C[C@H](O)C(=O)N1CCC(Oc2ccc(-c3ccnc(Nc4ccc(CN5CCOCC5)cc4)n3)cc2C#N)CC1`
A) 5 to 50 nM

Q) Please look at this molecule and report its IC50: `N#Cc1cc(-c2ccnc(Nc3ccc(N4CCOCC4)cc3)n2)ccc1OC1CCCCC1`
A) < 5 nM

Q) Please look at this molecule and report its IC50: `COc1cc(Nc2nccc(-c3ccc(OC4CCN(S(C)(=O)=O)CC4)c(C#N)c3)n2)ccc1N1CCOCC1`
A) 5 to 50 nM

Q) Please look at this molecule and report its IC50: `CC(=O)N1CCC(Oc2ccc(-c3ccnc(Nc4ccc(N5CCOCC5)cc4)n3)cc2C#N)CC1`
A) 5 to 50 nM

---

tested-system: IKKε (Homo sapiens)
Construct: His-tag; made in house; host or cells: Sf9 insect cells
Sequence (Q14164 1-716): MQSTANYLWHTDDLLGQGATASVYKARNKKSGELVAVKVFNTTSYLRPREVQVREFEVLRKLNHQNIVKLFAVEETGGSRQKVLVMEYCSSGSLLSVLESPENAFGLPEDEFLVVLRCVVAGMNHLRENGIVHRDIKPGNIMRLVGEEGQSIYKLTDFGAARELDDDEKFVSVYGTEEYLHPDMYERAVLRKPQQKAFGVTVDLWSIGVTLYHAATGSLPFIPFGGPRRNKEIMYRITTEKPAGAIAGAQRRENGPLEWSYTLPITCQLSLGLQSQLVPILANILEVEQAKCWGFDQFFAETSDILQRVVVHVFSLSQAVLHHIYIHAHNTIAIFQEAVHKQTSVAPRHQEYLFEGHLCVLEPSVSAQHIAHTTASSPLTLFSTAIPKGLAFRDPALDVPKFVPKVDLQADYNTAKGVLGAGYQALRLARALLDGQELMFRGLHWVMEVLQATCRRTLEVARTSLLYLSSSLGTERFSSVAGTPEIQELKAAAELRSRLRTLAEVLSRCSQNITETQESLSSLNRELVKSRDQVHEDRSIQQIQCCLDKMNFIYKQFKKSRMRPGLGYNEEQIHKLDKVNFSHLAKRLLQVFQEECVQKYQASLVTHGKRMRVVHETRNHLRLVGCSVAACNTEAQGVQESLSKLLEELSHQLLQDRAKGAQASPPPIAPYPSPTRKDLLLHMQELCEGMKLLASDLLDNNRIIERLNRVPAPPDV
method-notes: In-vitro IKKε kinase assay ([γ33]ATP filter-plate)
Type: biochemical
assay-context: text bins; read-out: IC50 for inhibition of the kinase activity of IKKε
pIC50: −log10 of the molar value.
So I've got a bunch of compounds here, and I need their pIC50 values.

Q) Please look at this compound and report its pIC50: `CN(C)CCOc1ccc(-c2ccnc(Nc3ccc(N4CCOCC4)cc3)n2)cc1C#N`
A) 7.30 to 8.30

Q) Please look at this compound and report its pIC50: `COc1cc(Nc2nccc(-c3ccc(OC4CCOCC4)c(C#N)c3)n2)ccc1C(=O)N1CCN(C(C)C)CC1`
A) > 8.30

Q) Please look at this compound and report its pIC50: `N#Cc1cc(-c2ccnc(Nc3ccc(N4CCOCC4)cc3)n2)ccc1OC1CCN(C(=O)[C@H](O)C(F)(F)F)CC1`
A) 7.30 to 8.30

Q) Please look at this compound and report its pIC50: `N#Cc1cc(-c2ccnc(Nc3ccc(N4CCOCC4)cc3)n2)ccc1OCCNC=O`
A) 7.30 to 8.30

Q) Please look at this compound and report its pIC50: `COC1CN(c2cccc(Nc3nccc(-c4ccc(O[C@@H]5CCN(C(=O)CO)C5)c(C#N)c4)n3)c2)C1`
A) > 8.30

Q) Please look at this compound and report its pIC50: `COc1ccc(-c2ccnc(Nc3ccc(S(=O)(=O)NCCCN)c(OC)c3)n2)cc1C#N`
A) 7.30 to 8.30

Q) Please look at this compound and report its pIC50: COc1cc(Nc2nccc(-c3ccc(OC4CCOCC4)c(C#N)c3)n2)ccc1C(=O)NCCC1CCCN1C (stereo not shown)
A) > 8.30

Q) Please look at this compound and report its pIC50: N#Cc1cc(-c2ccnc(Nc3ccc(N4CCOCC4)cc3)n2)ccc1OCC1CCCNC1 (stereo not shown)
A) 7.30 to 8.30

Q) Please look at this compound and report its pIC50: `CN(C)c1cccc(Nc2nccc(-c3cccc(C#N)c3)n2)c1`
A) 6.30 to 7.30

Q) Please look at this compound and report its pIC50: `COc1cc(Nc2nccc(-c3ccc(OC)c(C#N)c3)n2)ccc1C`
A) 6.30 to 7.30

Q) Please look at this compound and report its pIC50: `Cc1ccc(Nc2nccc(-c3ccc(OC4CCOCC4)c(C#N)c3)n2)cc1N1CCOCC1`
A) > 8.30

Q) Please look at this compound and report its pIC50: `COc1cc(Nc2nccc(-c3ccc(OC4CCOCC4)c(C#N)c3)n2)ccc1C(=O)N1CC(O)C1`
A) > 8.30

Q) Please look at this compound and report its pIC50: `CC(C)(C)C(=O)Nc1ccc(-c2ccnc(Nc3ccc(N4CCOCC4)cc3)n2)cc1C#N`
A) 7.30 to 8.30

Q) Please look at this compound and report its pIC50: `N#Cc1cc(-c2ccnc(Nc3cccc(CC(=O)NCCCN4CCOCC4)c3)n2)ccc1OC1CCOCC1`
A) 7.30 to 8.30

Q) Please look at this compound and report its pIC50: `CNS(=O)(=O)Cc1ccc(Nc2nccc(-c3ccc(OCC(C)C)c(C#N)c3)n2)cc1`
A) > 8.30

Q) Please look at this compound and report its pIC50: `N#Cc1cc(-c2ccnc(Nc3cccc(CO)c3)n2)ccc1OC1CCOCC1`
A) > 8.30
